Biological target: ProLink tagged human APJ (Apelin Receptor) in CHO-K1 AGTRL1 β-Arrestin cells (human, UniProt P35414 1-380)
Sequence (P35414 whole entry): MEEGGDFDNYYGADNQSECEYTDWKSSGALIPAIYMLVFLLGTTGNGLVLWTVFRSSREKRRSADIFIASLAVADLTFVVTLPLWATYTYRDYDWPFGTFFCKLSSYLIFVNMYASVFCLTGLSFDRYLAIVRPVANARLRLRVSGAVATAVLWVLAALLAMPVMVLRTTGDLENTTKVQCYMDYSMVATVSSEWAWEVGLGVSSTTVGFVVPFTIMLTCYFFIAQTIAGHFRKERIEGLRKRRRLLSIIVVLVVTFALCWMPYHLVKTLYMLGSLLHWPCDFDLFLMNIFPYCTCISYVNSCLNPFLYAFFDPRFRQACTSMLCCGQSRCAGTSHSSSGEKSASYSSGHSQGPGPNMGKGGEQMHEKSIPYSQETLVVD
Test: cell-based or functional assay
Non-standard residues stand in square brackets, D forms with d. Primed or numbered codes have the meaning given here. No end group written: not given here. PEG12(3) = not defined here
reported metric: β-Arrestin recruitment, Percent of Apelin-13 Control Activity (10 µM peptide)

Record excerpt, results attached:
- binder: "RRMMGMVFQ [SEQ ID NO 58]"
  result: "0 % of Apelin-13 control"
- binder: "Ac-RRMMGMVFQSLCG[dA] [SEQ ID NO 61]"
  result: "5 % of Apelin-13 control"
- binder: "RRMMGMVF [SEQ ID NO 57]"
  result: "0 % of Apelin-13 control"

List reported β-Arrestin recruitment, Percent of Apelin-13 Control Activity (10 µM peptide) for each of these binders:
1. RRMMGMVYQCLEG[dA] [SEQ ID NO 29]
2. RRMMGMVFQCLCG[dA]K(PEG12(3)) (cysteine pairing not given here) [SEQ ID NO 21]
3. MMGMVF [SEQ ID NO 45]
4. RRMMGMVFQCLCG[dA] (cysteine pairing not given here) [SEQ ID NO 8]
5. RRMMGMVEQSLCG[dA] [SEQ ID NO 38]
6. KRRLLGLVFQSLCGA ((PEG12) on the N-terminal K (position 1); (dA) D-alanine at position 15) [SEQ ID NO 37]

Result:
1: 0 % of Apelin-13 control; 2: 1 % of Apelin-13 control; 3: 0 % of Apelin-13 control; 4: 17 % of Apelin-13 control; 5: 0 % of Apelin-13 control; 6: 12 % of Apelin-13 control

List reported β-Arrestin recruitment, Percent of Apelin-13 Control Activity (10 µM peptide) for each of these binders:
1. Ac-RRMMGMVFQSLCG[dA]-NH2 [SEQ ID NO 63]
2. MMGMVFQS [SEQ ID NO 47]
3. RRMMGMVAQCLEG[dA] [SEQ ID NO 30]
4. RRMVYQCLEG[dA] [SEQ ID NO 24]
5. RRLLGLVEQSLCG[dA] [SEQ ID NO 40]
6. MMGMVFQSL [SEQ ID NO 48]

Result:
1: 9 % of Apelin-13 control; 2: 1 % of Apelin-13 control; 3: -1 % of Apelin-13 control; 4: -1 % of Apelin-13 control; 5: 0 % of Apelin-13 control; 6: 1 % of Apelin-13 control

Value source: patent US20220324909A1
